system: 313798-341-R-J2-PDC spheroids, viability; test: Anticancer human tumor 313798-341-R-J2-PDC patient-derived cervical squamous cell carcinoma cell line growth inhibition [PI3K]; details: second compound 0.1 µM; first compound 0.316 µM; hits give low values; spheroids with HUVEC and MSC
Entries and their viability, T/C
Record the value in %, omitting the unit from your answer.

Bench note: what viability, T/C did CNC(=O)c1ccc(N2C(=S)N(c3ccc(C#N)c(C(F)(F)F)c3)C(=O)C2(C)C)cc1F + CC(Nc1ccc2c(c1)OCCn1cc(N3C(=O)OCC3C(F)F)nc1-2)C(N)=O show?
91.9

# input compound: CC1(C)CCC(Nc2ncc(C(F)(F)F)c(-c3c[nH]c4c(P(C)(C)=O)c(C#N)ccc34)n2)CN1 (stereo not given) + CC(Nc1ccc2c(c1)OCCn1cc(N3C(=O)OCC3C(F)F)nc1-2)C(N)=O ; wanted: its viability, T/C
31.1

Consider the compound C=CC(=O)N1CCN(c2nc(=O)n(-c3c(C)ccnc3C(C)C)c3nc(-c4c(O)cccc4F)c(F)cc23)C(C)C1 (stereo not given) + CC(Nc1ccc2c(c1)OCCn1cc(N3C(=O)OCC3C(F)F)nc1-2)C(N)=O and give its measured viability, T/C.
102

Could you tell me which viability, T/C is on file for C#Cc1c(F)ccc2cc(O)cc(-c3ncc4c(N5CC6CCC(C5)N6)nc(OCC56CCCN5CC(F)C6)nc4c3F)c12 (stereo not given) + CC(Nc1ncnc2nc[nH]c12)c1cc2cccc(Cl)c2c(=O)n1-c1ccccc1 ?
93.2

Query: viability, T/C; subject: CC(C)NCC(C(=O)N1CCN(c2ncnc3c2C(C)CC3O)CC1)c1ccc(Cl)cc1 (stereo not given) + Cc1nc(NC(=O)N2CCCC2C(N)=O)sc1-c1ccnc(C(C)(C)C(F)(F)F)c1
87.8

###

// reported viability, T/C for each item listed
tested on: 313798-341-R-J2-PDC spheroids, viability; assay: Anticancer human tumor 313798-341-R-J2-PDC cell line growth inhibition [PI3K]; conditions: second compound 0.1 µM; first compound 0.316 µM; hits give low values; spheroids with HUVEC and MSC;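 note: spheroids exposed to compounds for seven days; 100% = DMSO vehicle control viability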

Some compounds with recorded viability, T/C:
>>> result_value("C[C@@H](NC(=O)c1ncnc(N)c1Cl)c1ncc(C(=O)Nc2cc(C(F)(F)F)c(Cl)cn2)s1 + Cc1nc(NC(=O)N2CCCC2C(N)=O)sc1-c1ccnc(C(C)(C)C(F)(F)F)c1")
"92.8%"
>>> result_value("CCCS(=O)(=O)Nc1ccc(F)c(C(=O)c2c[nH]c3ncc(-c4ccc(Cl)cc4)cc23)c1F + CC(Nc1ncnc2nc[nH]c12)c1cc2cccc(Cl)c2c(=O)n1-c1ccccc1")
"90.3%"

Look at this compound and give its reported viability, T/C. CNC(=O)c1ccc(N2C(=S)N(c3ccc(C#N)c(C(F)(F)F)c3)C(=O)C2(C)C)cc1F + COc1c(OCCCN2CCOCC2)ccc2c3n(c(=NC(=O)c4cnc(N)nc4)nc12)CCN3
39.7%

Given the compound C[C@@H](NC(=O)c1ncnc(N)c1Cl)c1ncc(C(=O)Nc2cc(C(F)(F)F)c(Cl)cn2)s1 + CC(Nc1ncnc2nc[nH]c12)c1cc2cccc(Cl)c2c(=O)n1-c1ccccc1 , what is its reported viability, T/C?
98.3%

Please give the measured viability, T/C for this compound: Cn1nccc1Nc1nccc(-c2ccn(C(CO)c3ccc(Cl)c(F)c3)c(=O)c2)n1 (stereo not given) + CC(Nc1ccc2c(c1)OCCn1cc(N3C(=O)OCC3C(F)F)nc1-2)C(N)=O
93.6%

Measured values drawn from PubChem BioAssay AID1963982 for this set.
